Assay: Inhibition of c-Src tyrosine kinase

smiles representation: Cn1c(=O)c(-c2c(F)cccc2F)cc2cnc(Nc3ccccc3)nc21
unit name: nM
modifier: =
IC50: 66

smiles representation: Cn1c(=O)c(-c2c(C(F)(F)F)cccc2C(F)(F)F)cc2cnc(Nc3ccccc3)nc21
unit name: nM
modifier: =
IC50: 8100

smiles representation: Cc1cc(O)cc(C)c1-c1cc2cnc(Nc3ccccc3)nc2n(C)c1=O
unit name: nM
modifier: =
IC50: 17

smiles representation: COc1cc(OC)c(Cl)c(-c2cc3cnc(Nc4ccccc4)nc3n(C)c2=O)c1Cl
unit name: nM
modifier: >
IC50: 50000

smiles representation: Cn1c(=O)c(-c2c(Cl)ccc(Cl)c2Cl)cc2cnc(Nc3ccccc3)nc21
unit name: nM
modifier: =
IC50: 270

smiles representation: Cn1c(=O)c(-c2c(Cl)cc(N)cc2Cl)cc2cnc(Nc3ccccc3)nc21
unit name: nM
modifier: =
IC50: 270

smiles representation: Cn1c(=O)c(-c2c(O)cccc2O)cc2cnc(Nc3ccccc3)nc21
unit name: nM
modifier: =
IC50: 720

smiles representation: CCN(CC)CCOc1ccc(Nc2ncc3cc(-c4c(Cl)ccc(O)c4Cl)c(=O)n(C)c3n2)cc1
unit name: nM
modifier: =
IC50: 6

smiles representation: Cn1c(=O)c(-c2c(Cl)ccc(O)c2Cl)cc2cnc(Nc3ccccc3)nc21
unit name: nM
modifier: =
IC50: 9

smiles representation: COc1cccc(OC)c1-c1cc2cnc(Nc3ccccc3)nc2n(C)c1=O
unit name: nM
modifier: =
IC50: 980

###

Assay: Inhibition of c-Src tyrosine kinase
pIC50: −log10 of the molar value.

smiles representation: COc1cccc(Cl)c1-c1cc2cnc(Nc3ccccc3)nc2n(C)c1=O
pIC50: 6.92
//
smiles representation: Cn1c(=O)c(-c2c(Br)cccc2Br)cc2cnc(Nc3ccccc3)nc21
pIC50: 7.33
//
smiles representation: COc1ccc(Cl)c(-c2cc3cnc(Nc4ccccc4)nc3n(C)c2=O)c1Cl
pIC50: 6.27
//
smiles representation: Cn1c(=O)c(-c2c(Cl)cccc2Cl)cc2cnc(Nc3ccc(CCCC4N=NN=N4)cc3)nc21
pIC50: 7.60
//
smiles representation: Cc1cccc(C)c1-c1cc2cnc(Nc3ccccc3)nc2n(C)c1=O
pIC50: 7.85

###

Test: Inhibition of c-Src tyrosine kinase
pIC50: −log10 of the molar value.

compound: COc1cc(Cl)c(-c2cc3cnc(Nc4ccccc4)nc3n(C)c2=O)c(Cl)c1
modifier: =
pIC50: 5.19
--
compound: Cn1c(=O)c(-c2c(Cl)ccc(C(N)=O)c2Cl)cc2cnc(Nc3ccccc3)nc21
modifier: =
pIC50: 6.89
--
compound: COc1cccc(O)c1-c1cc2cnc(Nc3ccccc3)nc2n(C)c1=O
modifier: =
pIC50: 7.30
--
compound: Cn1c(=O)c(-c2c(O)cccc2Cl)cc2cnc(Nc3ccccc3)nc21
modifier: =
pIC50: 7.66
--
compound: Cn1c(=O)c(-c2c(Cl)ccc(CO)c2Cl)cc2cnc(Nc3ccccc3)nc21
modifier: =
pIC50: 7.41
--
compound: CCN(CC)CCOc1ccc(Nc2ncc3c(C)c(-c4c(C)cccc4C)c(=O)n(C)c3n2)cc1
modifier: =
pIC50: 6.44
--
compound: Cn1c(=O)c(-c2c(Cl)ccc(O)c2Cl)cc2cnc(Nc3ccc(OCCCC(=O)O)cc3)nc21
modifier: =
pIC50: 7.00
--
compound: Cn1c(=O)c(-c2c(Cl)cccc2Cl)cc2cnc(Nc3ccc(CC(N)C(=O)O)cc3)nc21 (stereo not given)
modifier: =
pIC50: 8.05
--
compound: CCN(CC)CCOc1ccc(Nc2ncc3cc(-c4c(Cl)cc(O)cc4Cl)c(=O)n(C)c3n2)cc1
modifier: =
pIC50: 8.10
--
compound: CC(=O)Nc1cc(Cl)c(-c2cc3cnc(Nc4ccccc4)nc3n(C)c2=O)c(Cl)c1
modifier: =
pIC50: 5.82
--
compound: Cn1c(=O)c(-c2c(Cl)cc(O)cc2Cl)cc2cnc(Nc3ccc(OCCCC(=O)O)cc3)nc21
modifier: =
pIC50: 8.22
--
compound: Cc1c(O)cc(O)c(C)c1-c1cc2cnc(Nc3ccccc3)nc2n(C)c1=O
modifier: =
pIC50: 6.96
--
compound: COc1cc(OC)cc(-c2cc3cnc(NCCCN4CCOCC4)nc3nc2NC(=O)NC(C)(C)C)c1
modifier: <
pIC50: 4.30
--
compound: Cn1c(=O)c(-c2c(Cl)cccc2C(F)(F)F)cc2cnc(Nc3ccccc3)nc21
modifier: =
pIC50: 6.68
--
compound: Cc1ccc(Cl)c(-c2cc3cnc(Nc4ccccc4)nc3n(C)c2=O)c1Cl
modifier: =
pIC50: 5.55
--
compound: Cn1c(=O)c(-c2c(Cl)cccc2Cl)cc2cnc(Nc3ccc(CCC(N)=O)cc3)nc21
modifier: =
pIC50: 7.52
--
compound: Cc1cccc(Br)c1-c1cc2cnc(Nc3ccccc3)nc2n(C)c1=O
modifier: =
pIC50: 7.24
--
compound: Cc1cccc(C)c1-c1c(C)c2cnc(Nc3ccccc3)nc2n(C)c1=O
modifier: =
pIC50: 4.82
--
compound: Cn1c(=O)c(-c2c(Cl)cccc2Cl)cc2cnc(Nc3ccc(CCCC(=O)OCCN4CCOCC4)cc3)nc21
modifier: =
pIC50: 8.40
--
compound: Cc1c(-c2ccccc2Cl)c(=O)n(C)c2nc(Nc3ccccc3)ncc12
modifier: <
pIC50: 4.30
